tested on: C. violaceum CVO26; assay: C. violaceum CVO26 growth inhibition (OD625); assay type: cell-based; conditions: Chromobacterium violaceum, CVO26, 18 h, read-out: IC50 (Growth inhibition)
I'd appreciate it if you could supply pIC50 values for the items below.
Numbers only, as −log10 of the molar value.

CCCCCCCCCCCCCCCC[P+](c1ccccc1)(c1ccccc1)c1ccccc1 :: 5.49
CCCCCCCCCCCCCCC[P+](c1ccccc1)(c1ccccc1)c1ccccc1 :: 5.59
CCCCCCCCC[P+](c1ccccc1)(c1ccccc1)c1ccccc1 :: 4.80
CCCCCCCCCCC[P+](c1ccccc1)(c1ccccc1)c1ccccc1 :: 5.31
CCCCCCCCCCCCCCCCCCC[P+](c1ccccc1)(c1ccccc1)c1ccccc1 :: 4.40

# input for lookup
Challenge: Notebook entry, C. violaceum CVO26 assay: pIC50 of CCCCCCC[P+](c1ccccc1)(c1ccccc1)c1ccccc1 [Compound 8, heptyl triphenylphosphonium bromide] = ?
Response given: 4.28

---

system: Navicula cf. salinicola BEA 0055; test: Benthic diatom growth inhibition (chlorophyll-a); type: cell-based; settings: 120 h, read-out: IC50 Navicula cf. salinicola
Outcome Measure: pIC50
Answers are plain numbers, as −log10 of the molar value.

Challenge: Provide the documented pIC50 with Navicula cf. salinicola BEA 0055 as the system for CCCCCCCCCCCC[P+](c1ccccc1)(c1ccccc1)c1ccccc1 [Compound 12]
Response given: 5.89

---

Assay: in vivo
Details: in vivo
Description: All the biological assays were run by triplicate. […] For the active products, serial dilutions were performed to calculate the half-maximal inhibitory concentrations (IC50) or the minimal inhibitory concentrations (MIC). […] Artemia salina cysts (INVE Aquaculture, Ghent, Belgium) were hatched in brackish water (30 ‰ salinity) at 28 °C with aeration and under constant light. […] The number of dead and alive individuals was recorded after 24 h of incubation at 28 °C and 24-hour photoperiod.
Outcome Measure: LC50 at 24 h

CCCCCCCCCCCCCCCCCCC[P+](c1ccccc1)(c1ccccc1)c1ccccc1 [Compound 18] :: < 500 nM

Challenge: Look at this molecule and give its reported LC50 at 24 h. CCCCCCCCCCCCCCCCCC[P+](c1ccccc1)(c1ccccc1)c1ccccc1 [Compound 17]
Response given: < 500 nM

---

test system: C. violaceum CVO26; test: C. violaceum CVO26 growth inhibition (OD625); type: cell-based; settings: Chromobacterium violaceum, CVO26, 18 h, read-out: IC50 (Growth inhibition)
Outcome Measure: IC50

# annotated cases, reported IC50 shown
CCCCN[P+](c1ccccc1)(c1ccccc1)c1ccccc1 [Compound 5] :: > 500 µM
C/C=C/C[P+](c1ccccc1)(c1ccccc1)c1ccccc1 [Compound 3] :: > 500 µM

// below: IC50 requested for another compound
Challenge: Could you share what IC50 was measured for CCCCC[P+](c1ccccc1)(c1ccccc1)c1ccccc1 [Compound 7] , tested on C. violaceum CVO26?
Response given: > 500 µM

---

tested on: Amphora sp.; assay: Benthic diatom growth inhibition (chlorophyll-a); assay type: cell-based; details: 120 h, read-out: IC50 Amphora sp.
Outcome Measure: pIC50
Numbers only, as −log10 of the molar value.

Challenge: Find pIC50 (Amphora sp.) for the entry CCCCCCCCCCCC[P+](c1ccccc1)(c1ccccc1)c1ccccc1 [Compound 12]
Response given: 5.32

---

Provide the recorded IC50 for the entries that follow.
system: Pseudoalteromonas atlantica CECT 579; experiment: Marine bacteria growth inhibition (broth microdilution, OD625); format: cell-based; conditions: Pseudoalteromonas atlantica, CECT579; growth inhibition, 24 h, 30 °C, three replicates; read-out: IC50 P. atlantica
Answers are plain numbers, in µM.

For each of the molecules below, state IC50.
1. CCCCCCCCCCCCCCCC[P+](c1ccccc1)(c1ccccc1)c1ccccc1 [Compound 16]
2. CCCCCCC[P+](c1ccccc1)(c1ccccc1)c1ccccc1 [Compound 8, heptyl triphenylphosphonium bromide]
3. c1ccc([P+](CCCCCCCCCCCC[P+](c2ccccc2)(c2ccccc2)c2ccccc2)(c2ccccc2)c2ccccc2)cc1 [Compound 20]
4. BrCCCC[P+](c1ccccc1)(c1ccccc1)c1ccccc1 [Compound 4]

Response given:
1: 6.8; 2: 28.6; 3: 0.8; 4: 26.4

---

system: Artemia salina nauplii; assay: in vivo; details: instar I nauplii, 24 h, 28 °C
Doc: threshold 3 µM (exclusive). Items with IC50 A. salina (LC50) beneath it return 1.0; others return 0.0.

CCCCCCC[P+](c1ccccc1)(c1ccccc1)c1ccccc1 [Compound 8, heptyl triphenylphosphonium bromide] :: 0.0
CCCCCCCCCCCC[P+](c1ccccc1)(c1ccccc1)c1ccccc1 :: 1.0
CCCCC[P+](c1ccccc1)(c1ccccc1)c1ccccc1 :: 0.0

Challenge: I'd appreciate it if you could check whether `O=S(=O)([O-])CCCC[P+](c1ccccc1)(c1ccccc1)c1ccccc1` has IC50 A. salina (LC50) smaller than 3 µM.
Response given: 0.0

Challenge: For this compound, is IC50 A. salina (LC50) lower than 3 µM? `CCCCCCCCC[P+](c1ccccc1)(c1ccccc1)c1ccccc1`
Response given: 1.0

Challenge: Please state whether IC50 A. salina (LC50) is below 3 µM for `BrCCCC[P+](c1ccccc1)(c1ccccc1)c1ccccc1`
Response given: 0.0

Challenge: hey, is IC50 A. salina (LC50) for `CCCCCCCCCCC[P+](c1ccccc1)(c1ccccc1)c1ccccc1` lower than 3 µM or not?
Response given: 1.0

Challenge: Please state whether IC50 A. salina (LC50) is below 3 µM for `CCCCCCCCCCCCCCC[P+](c1ccccc1)(c1ccccc1)c1ccccc1`
Response given: 1.0

---

tested on: Fusarium sp.; assay: Marine-derived fungi growth inhibition (OD405); type: cell-based; conditions: Fusarium, 120 h, 5 days, 26 °C
pIC50: −log10 of the molar value.
Outcome Measure: pIC50

Example cases with answers are listed next.
CCCCCCC[P+](c1ccccc1)(c1ccccc1)c1ccccc1 [Compound 8, heptyl triphenylphosphonium bromide] :: < 4.00
CCCCC[P+](c1ccccc1)(c1ccccc1)c1ccccc1 :: < 4.00
CCCCN[P+](c1ccccc1)(c1ccccc1)c1ccccc1 :: < 4.00
COC(=O)CCC[P+](c1ccccc1)(c1ccccc1)c1ccccc1 :: < 4.00
CCCCCCCCCCCCC[P+](c1ccccc1)(c1ccccc1)c1ccccc1 :: 5.19

Please give pIC50 for each item listed below.
1. C/C=C/C[P+](c1ccccc1)(c1ccccc1)c1ccccc1
2. CCCCCCCCCCCCCCC[P+](c1ccccc1)(c1ccccc1)c1ccccc1
3. BrC(Br)[P+](c1ccccc1)(c1ccccc1)c1ccccc1
4. BrCCCC[P+](c1ccccc1)(c1ccccc1)c1ccccc1

Response given:
["< 4.00", 5.38, "< 4.00", "< 4.00"]

---

test system: Fusarium sp.; assay: Marine-derived fungi growth inhibition (OD405); format: cell-based; details: Fusarium, 120 h, 5 days, 26 °C
What pIC50 was measured for each of the following?
Numbers only, as −log10 of the molar value.

CCCCCCCCC[P+](c1ccccc1)(c1ccccc1)c1ccccc1 :: 4.50

Challenge: Please look up its pIC50: `CCCCCCCCCCCCCC[P+](c1ccccc1)(c1ccccc1)c1ccccc1`
Response given: 5.29

---

So I've got a bunch of molecules here, and I need their IC50 values.
test system: Pseudoalteromonas atlantica CECT 579; experiment: Marine bacteria growth inhibition (broth microdilution, OD625); type: cell-based; conditions: Pseudoalteromonas atlantica, CECT579; growth inhibition, 24 h, 30 °C, three replicates; read-out: IC50 P. atlantica

CCCCCCCCCCC[P+](c1ccccc1)(c1ccccc1)c1ccccc1 :: 3 µM
C/C=C/C[P+](c1ccccc1)(c1ccccc1)c1ccccc1 :: 9.5 µM
COC(=O)CCC[P+](c1ccccc1)(c1ccccc1)c1ccccc1 :: > 100 µM
O=C(O)CCCCCCCCCC[P+](c1ccccc1)(c1ccccc1)c1ccccc1 :: > 100 µM
CCCCCCCCCCCCCCC[P+](c1ccccc1)(c1ccccc1)c1ccccc1 :: 2.9 µM
O=S(=O)([O-])CCCC[P+](c1ccccc1)(c1ccccc1)c1ccccc1 :: > 100 µM
CCCCCCCCCC[P+](c1ccccc1)(c1ccccc1)c1ccccc1 :: 5.2 µM
CCCCCCCCCCCCCCCCCCC[P+](c1ccccc1)(c1ccccc1)c1ccccc1 :: > 100 µM

Now for a further molecule.
Challenge: Quick one: IC50 of `CCCCCCCCC[P+](c1ccccc1)(c1ccccc1)c1ccccc1` ?
Response given: 6.6 µM

---

Task for the reader: assign each of the following molecules its reported IC50.
tested on: Pseudoalteromonas atlantica CECT 579; assay: Marine bacteria growth inhibition (broth microdilution, OD625); assay type: cell-based; details: Pseudoalteromonas atlantica, CECT579; growth inhibition, 24 h, 30 °C, three replicates; read-out: IC50 P. atlantica
Give bare numbers, in µM.

I need IC50 for every entry listed below, if you could help.
1. CCCCCCCCCCCCCC[P+](c1ccccc1)(c1ccccc1)c1ccccc1
2. CCCCCCCCCCCCC[P+](c1ccccc1)(c1ccccc1)c1ccccc1
3. CCCCCCCCCCCCCCCCCC[P+](c1ccccc1)(c1ccccc1)c1ccccc1

Response given:
1: 2.3; 2: 1.2; 3: 46.1

Values from paper PMC4405350
